- Procedure details: cell viability in Huh7 cells, primary screen, cytotoxicity control for HCV replication inhibitor project, CellTiter-Glo luminescence, basal, 48 h (AID 1143);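 further: Huh7 hepatoma cells carrying a hepatitis C replication reporter with no stimulus; test concentration not given here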
- Conditions used: Huh7 HCV replicon, higher = more signal, called active from +8 up or from −8 down
Property name: z-score
Just the number, please, no unit after it.

Query string: Please report the recorded z-score for CCOC(=O)[C@H](CC(C)C)NC(=O)CCC1CC(OC(=O)NCCc2ccc(F)cc2)CC2(CCCC(COC(=O)NCc3ccccc3)O2)O1 (stereo partly specified) .
Result string: -4.31

Query string: Please report the recorded z-score for COc1ccc(-c2ccc3c(n2)CCCN3CC(O)CN2CCCc3nc(C)c(C)cc32)cc1 (stereo unspecified) .
Result string: -0.154

Query string: Please report the recorded z-score for COCCOC(=O)N1C(=O)[C@@]2(c3cc(C#CCNC(N)=O)ccc31)[C@H](c1ccc(O)cc1)N1[C@H](c3ccccc3)[C@H](c3ccccc3)OC(=O)[C@H]1[C@@H]2C(=O)N1CCCCCCC1 .
Result string: -0.446

Query string: Please report the recorded z-score for CCOC(=O)CCN1C(=O)[C@H]2[C@H]3[C@H](O)[C@H](O)CC(=NOC[C@@H](O)COCc4ccco4)[C@H]3CC[C@H]2C1=O .
Result string: -4.31

Query string: Please report the recorded z-score for CO[C@@H]1COC(=O)[C@H](C)NC(=O)[C@@H](C)COC(=O)CCC[C@H]1C .
Result string: -0.639

Query string: Please report the recorded z-score for COCCCNC(=O)[C@@]1(C)c2ccccc2C(=O)N(Cc2ccc(OC(F)(F)F)cc2)[C@H]1c1ccc(CO)cc1 .
Result string: -1.27

Query string: Please report the recorded z-score for CCN1C(=O)[C@H]2[C@H]3[C@H](O)[C@H](O)CC(=NOCc4ccccc4)[C@H]3CC[C@H]2C1=O .
Result string: 0.856

Query string: Please report the recorded z-score for CC(=O)C[C@H](O)[C@@H](NC(=O)OC(C)(C)C)C(C)C .
Result string: -2.64

Query string: Please report the recorded z-score for O=C1O[C@@H](c2ccccc2)[C@@H](c2ccccc2)N2[C@@H](c3ccc(O)cc3)[C@]3(C(=O)Nc4ccccc43)[C@@H](C(=O)O)[C@H]12 .
Result string: -4.36

Query string: Please report the recorded z-score for COC(=O)CC=C[C@@H](C)[C@H](OC)c1ccccc1Br .
Result string: 0.266

Query string: Please report the recorded z-score for CCCCC(=C=CC[C@H](O)c1ccccc1OCCO)C[C@H](O)COCc1ccccc1 .
Result string: -1.41

Query string: Please report the recorded z-score for CC(C)CON=C1C[C@@H](O)[C@@H](O)[C@@H]2[C@@H]3C(=O)N(Cc4ccccc4)C(=O)[C@@H]3CC[C@@H]12 .
Result string: 0.674

Query string: Please report the recorded z-score for CC(C)CON=C1C[C@@H](O)[C@@H](O)[C@@H]2[C@@H]3C(=O)N([C@@H](C)c4ccccc4)C(=O)[C@@H]3CC[C@H]12 .
Result string: -0.544

Query string: Please report the recorded z-score for C[C@H]1CC[C@@H](C(=O)O)N[C@@H]1c1ccc(C#CCN(C)C)cc1 .
Result string: 0.141

Query string: Please report the recorded z-score for C=C(/C(=C/C[C@H](OC(C)=O)c1ccc(OCCO)cc1)c1cnc2ccccc2c1)C(C)C .
Result string: -2.51

Query string: Please report the recorded z-score for CCN1C(=O)[C@H]2[C@H]3[C@H](O)[C@H](O)CC(=NOC(C)CN4CCCCc5nc(C)c(C)cc54)[C@@H]3CC[C@H]2C1=O (stereo partly specified) .
Result string: 0.06
